These measurements were taken from ChEMBL document CHEMBL2218924.

system: Activin receptor type-1B (Homo sapiens) (UniProt P36896)
Sequence (whole entry): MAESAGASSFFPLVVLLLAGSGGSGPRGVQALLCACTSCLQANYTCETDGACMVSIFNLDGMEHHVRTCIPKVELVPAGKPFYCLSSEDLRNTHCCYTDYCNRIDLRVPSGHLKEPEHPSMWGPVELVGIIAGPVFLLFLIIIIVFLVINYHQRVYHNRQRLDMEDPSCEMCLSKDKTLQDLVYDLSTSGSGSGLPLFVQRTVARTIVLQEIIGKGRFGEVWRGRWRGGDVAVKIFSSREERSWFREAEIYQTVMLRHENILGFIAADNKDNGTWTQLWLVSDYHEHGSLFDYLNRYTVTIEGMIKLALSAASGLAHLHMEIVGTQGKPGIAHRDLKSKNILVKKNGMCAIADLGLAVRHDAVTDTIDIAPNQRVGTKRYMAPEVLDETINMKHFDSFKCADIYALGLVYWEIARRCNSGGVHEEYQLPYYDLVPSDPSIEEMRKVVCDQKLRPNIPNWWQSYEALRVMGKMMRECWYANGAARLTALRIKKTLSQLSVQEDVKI
condition.info: at 1 µM
outcome.measure: residual activity (%)
Reply numerically in %, unit not repeated.

// below: answered compounds
- structure.smiles: "CCCCc1c(-c2ccc(OC)cc2)[nH]c2nccnc12"
  numeric.readout: 81
- structure.smiles: "c1ccc(-c2cnc(Nc3ccc(OCCN4CCCC4)cc3)s2)cc1"
  numeric.readout: 131
- structure.smiles: "CCN1/C(=C/C(C)=O)Sc2ccc(OC)cc21"
  numeric.readout: 122

Request: Data request, read-out residual activity, for Nc1ncnc2[nH]nc(Nc3ccc(F)cc3)c12
Response: 114

###

In this section, each of the molecules is paired with its reported residual activity.
system: Calcium/calmodulin-dependent protein kinase type 1 (Homo sapiens)
condition.info: at 1 µM
Answer by giving the amount and then stating its unit.

- molecule: "CCN(CC)CCNC(=O)c1c(C)[nH]c(/C=C2\\C(=O)Nc3ccc(Cl)cc32)c1C"
  residual activity: "51%"

Request: Value lookup for residual activity; key = CC(C)c1nn(-c2c(Cl)cccc2Cl)c2nc(Cc3ccc(OCCO)cc3)[nH]c(=O)c12
Response: 90%

###

system: Proto-oncogene tyrosine-protein kinase Src (Homo sapiens) (UniProt P12931)
Sequence (P12931 2-536 limits assumed): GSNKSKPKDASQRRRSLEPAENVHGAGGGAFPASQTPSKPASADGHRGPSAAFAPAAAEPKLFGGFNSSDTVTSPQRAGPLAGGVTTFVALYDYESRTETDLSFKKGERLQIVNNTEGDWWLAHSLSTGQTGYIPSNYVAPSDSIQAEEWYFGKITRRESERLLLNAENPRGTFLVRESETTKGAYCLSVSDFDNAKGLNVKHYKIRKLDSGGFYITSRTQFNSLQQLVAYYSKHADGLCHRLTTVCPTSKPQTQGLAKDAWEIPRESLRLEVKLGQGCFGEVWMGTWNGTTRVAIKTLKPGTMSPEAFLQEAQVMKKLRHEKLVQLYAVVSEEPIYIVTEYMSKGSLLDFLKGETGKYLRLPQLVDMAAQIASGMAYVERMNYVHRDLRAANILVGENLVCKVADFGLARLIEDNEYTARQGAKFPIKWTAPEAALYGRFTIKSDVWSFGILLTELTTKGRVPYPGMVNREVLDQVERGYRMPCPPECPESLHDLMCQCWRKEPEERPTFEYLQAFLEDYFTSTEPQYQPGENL
condition.info: at 10 µM
outcome.measure: residual activity
Please give the number followed by its unit.

# example entries with known answers
- compound: "CCCC(=O)Oc1ccc2[nH]c(C(=O)c3cc4ccccc4[nH]3)cc2c1"
  outcome.measure: "residual activity"
  result: "94%"
- compound: "O=C1Nc2ccc(Cl)cc2/C1=C/c1cc(Cl)c(O)c(Cl)c1"
  outcome.measure: "residual activity"
  result: "65%"
- compound: "O=c1cc(N2CCOCC2)oc2c1ccc1ccccc12"
  outcome.measure: "residual activity"
  result: "90%"
- compound: "COc1cc2ncnc(Nc3cccc(Cl)c3)c2cc1OC"
  outcome.measure: "residual activity"
  result: "29%"
- compound: "CC(C)c1nn(-c2c(Cl)cccc2Cl)c2nc(Cc3ccc(OCCO)cc3)[nH]c(=O)c12"
  outcome.measure: "residual activity"
  result: "87%"
- compound: "Oc1cccc(-c2nc(N3CCOCC3)c3oc4ncccc4c3n2)c1"
  outcome.measure: "residual activity"
  result: "94%"

Attention now shifts to the item below.
Request: Entry under review: CSc1nc(-c2ccc(F)cc2)c(-c2ccnc(NC(C)c3ccccc3)c2)[nH]1 (stereo not drawn) . Reported residual activity?
Response: 100%

###

# Lookup of reported residual activity keyed by entry
system: Protein kinase C delta type (Homo sapiens) (UniProt Q05655)
Sequence (Q05655 whole entry, looked up): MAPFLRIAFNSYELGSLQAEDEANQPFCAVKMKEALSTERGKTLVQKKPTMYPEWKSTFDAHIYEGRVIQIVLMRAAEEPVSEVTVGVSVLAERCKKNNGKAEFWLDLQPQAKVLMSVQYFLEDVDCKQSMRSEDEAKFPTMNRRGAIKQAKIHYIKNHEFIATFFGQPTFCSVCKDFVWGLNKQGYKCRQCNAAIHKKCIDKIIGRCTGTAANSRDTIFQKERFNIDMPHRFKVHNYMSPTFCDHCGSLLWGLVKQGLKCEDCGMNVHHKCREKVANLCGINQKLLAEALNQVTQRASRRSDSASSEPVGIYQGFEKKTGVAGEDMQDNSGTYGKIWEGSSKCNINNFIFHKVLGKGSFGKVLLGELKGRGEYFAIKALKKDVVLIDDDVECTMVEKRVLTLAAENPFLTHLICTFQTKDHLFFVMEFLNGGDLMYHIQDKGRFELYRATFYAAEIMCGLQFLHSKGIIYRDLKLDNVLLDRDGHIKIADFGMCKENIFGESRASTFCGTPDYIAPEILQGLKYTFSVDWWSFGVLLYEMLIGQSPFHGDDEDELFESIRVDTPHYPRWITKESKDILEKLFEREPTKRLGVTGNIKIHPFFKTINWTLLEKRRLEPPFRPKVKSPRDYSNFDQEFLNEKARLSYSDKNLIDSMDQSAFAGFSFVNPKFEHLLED
condition.info: at 1 µM
State the answer as a number, implicitly in %.

# example entries with known answers
- structure.smiles: "NCCNc1ncc(C(N)=O)c(Nc2cccc(C(F)(F)F)c2)n1"
  display.unit: "%"
  residual activity: 75
- structure.smiles: "O=C(c1cc2cc(O)ccc2[nH]1)c1cc2cc(O)ccc2[nH]1"
  display.unit: "%"
  residual activity: 100
- structure.smiles: "O=C1NC(=O)c2c1c1c3ccccc3[nH]c1n1cncc21"
  display.unit: "%"
  residual activity: 79
- structure.smiles: "O=c1cc(N2CCOCC2)oc2c1ccc1ccccc12"
  display.unit: "%"
  residual activity: 100

Request: What value of measured residual activity is listed for O=C(O)/C=C/c1cc(Br)c(Br)c(Br)c1Br ?
Response: 100

Request: Name the reported residual activity value associated with the compound O=C1NC(=O)C(c2cn(CCCn3ccnc3)c3ccccc23)=C1Nc1ccccc1
Response: 8

###

system: Maternal embryonic leucine zipper kinase (Homo sapiens) (UniProt Q14680)
Sequence (Q14680 whole entry, looked up): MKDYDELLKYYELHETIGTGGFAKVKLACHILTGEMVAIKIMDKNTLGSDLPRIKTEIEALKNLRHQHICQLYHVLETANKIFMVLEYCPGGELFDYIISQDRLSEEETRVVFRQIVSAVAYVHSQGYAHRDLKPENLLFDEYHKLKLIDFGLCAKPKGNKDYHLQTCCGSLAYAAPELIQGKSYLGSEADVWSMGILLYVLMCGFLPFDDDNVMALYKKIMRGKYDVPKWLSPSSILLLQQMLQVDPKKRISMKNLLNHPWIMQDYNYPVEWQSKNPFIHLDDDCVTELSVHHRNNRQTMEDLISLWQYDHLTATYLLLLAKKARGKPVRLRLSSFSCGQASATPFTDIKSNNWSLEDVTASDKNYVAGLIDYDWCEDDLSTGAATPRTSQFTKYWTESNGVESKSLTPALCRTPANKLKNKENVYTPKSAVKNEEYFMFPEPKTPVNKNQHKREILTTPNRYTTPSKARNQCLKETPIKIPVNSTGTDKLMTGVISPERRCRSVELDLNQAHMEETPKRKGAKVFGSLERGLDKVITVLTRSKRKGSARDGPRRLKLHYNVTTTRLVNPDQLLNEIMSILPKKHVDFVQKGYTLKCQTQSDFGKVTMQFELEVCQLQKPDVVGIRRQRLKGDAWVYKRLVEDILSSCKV
condition.info: at 10 µM
Decide using residual activity alone. Strictly below 30%: Y. Equal to or above 30%: N.

Worked examples follow.
- molecule: "CC(C)(C)c1nc2c3ccc(F)cc3c3c(=O)[nH]ccc3c2[nH]1"
  qualitative.label: "Y"
- molecule: "O=C1NC(=O)C(c2cn(CCCO)c3ncccc23)=C1c1cnccn1"
  qualitative.label: "N"
- molecule: "Nc1ncnc2c1c(-c1ccc(Oc3ccccc3)cc1)cn2C1CCCC1"
  qualitative.label: "N"
- molecule: "Nc1n[nH]c2nc3ccccc3nc12"
  qualitative.label: "N"
- molecule: "CSc1nc(-c2ccc(F)cc2)c(-c2ccnc(NC(C)c3ccccc3)c2)[nH]1 (stereo unspecified)"
  qualitative.label: "N"

Request: Consider the molecule O=C1NC(=O)C(c2c[nH]c3ccccc23)=C1c1c[nH]c2ccccc12 . Is its residual activity strictly less than 30%?
Response: Y

Request: Criterion: residual activity strictly below 30%. Is it met by N#C/C(=C1/Nc2ccccc2S1)c1ccnc(NCCc2cccnc2)n1 ?
Response: N

Request: I wonder whether COc1ccc(Cl)cc1NC(=O)Nc1cc(C)nc2ccccc12 has residual activity below 30%. Can you tell?
Response: N

Request: Answer whether the molecule Cn1c2ccccc2c2c3c(c4c5ccccc5n(CCC#N)c4c21)CNC3=O has residual activity strictly less than 30%
Response: Y

###

system: Serine/threonine-protein kinase 4 (Homo sapiens) (UniProt Q13043)
Sequence (Q13043 whole entry): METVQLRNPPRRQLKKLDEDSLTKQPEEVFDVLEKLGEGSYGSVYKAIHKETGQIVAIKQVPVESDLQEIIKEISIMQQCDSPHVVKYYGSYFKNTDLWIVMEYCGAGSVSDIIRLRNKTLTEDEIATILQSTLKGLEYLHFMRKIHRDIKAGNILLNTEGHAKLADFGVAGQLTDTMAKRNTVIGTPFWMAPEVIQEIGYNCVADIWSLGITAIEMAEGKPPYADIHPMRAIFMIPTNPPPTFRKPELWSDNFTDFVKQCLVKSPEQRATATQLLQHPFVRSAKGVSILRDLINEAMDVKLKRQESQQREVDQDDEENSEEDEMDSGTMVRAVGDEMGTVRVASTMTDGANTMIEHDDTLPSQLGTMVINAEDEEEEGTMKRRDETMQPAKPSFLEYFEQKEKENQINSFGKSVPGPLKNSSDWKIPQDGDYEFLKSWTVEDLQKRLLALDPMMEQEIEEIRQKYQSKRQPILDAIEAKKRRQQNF
condition.info: at 1 µM
Please assign rule not met whenever residual activity is at or above 70%, and rule met whenever it is below.

// known answers, use as guide
- structure.smiles: "O=C1Nc2ccc(Cl)cc2/C1=C/c1cc(Cl)c(O)c(Cl)c1"
  system: "Serine/threonine-protein kinase 4 (Homo sapiens) (UniProt Q13043)"
  qualitative.label: "rule met"
- structure.smiles: "Nc1ncnc2c1c(-c1ccc(Oc3ccccc3)cc1)cn2C1CCCC1"
  system: "Serine/threonine-protein kinase 4 (Homo sapiens) (UniProt Q13043)"
  qualitative.label: "rule not met"
- structure.smiles: "COc1ccc(CNC(=O)Nc2ncc([N+](=O)[O-])s2)cc1"
  system: "Serine/threonine-protein kinase 4 (Homo sapiens) (UniProt Q13043)"
  qualitative.label: "rule not met"

Shifting focus to the compound that follows.
Request: State whether 70% exceeds residual activity recorded for CCCC(=O)Oc1ccc2[nH]c(C(=O)c3cc4ccccc4[nH]3)cc2c1 .
Response: rule not met

###

system: Protein kinase C gamma type (Homo sapiens)
condition.info: at 10 µM
Lab note: anything with residual activity below 80% is marked Condition met; values at 80% or higher are marked Condition not met.

// below: answered compounds
- structure.smiles: "Cn1sc(=O)n(Cc2ccccc2)c1=O"
  qualitative.label: "Condition met"
- structure.smiles: "O=C1NC(=O)C(c2c[nH]c3ccccc23)=C1c1c[nH]c2ccccc12"
  qualitative.label: "Condition met"

Request: Input CCCCc1c(-c2ccc(OC)cc2)[nH]c2nccnc12 ; condition: residual activity strictly below 80%. Does it hold?
Response: Condition not met

Request: Lab note: residual activity threshold 80%. Does this compound come in strictly under it? O=C1C(Cl)=C(N2C(=O)CCC2=O)C(=O)c2ccccc21
Response: Condition met

Request: Does the reported residual activity of CN([C@@H](Cc1ccc(OS(=O)(=O)c2cccc3cnccc23)cc1)C(=O)N1CCN(c2ccccc2)CC1)S(=O)(=O)c1cccc2cnccc12 stay below 80%?
Response: Condition not met

Request: Bench note: check whether Nc1ncnc2c1c(-c1ccc(Oc3ccccc3)cc1)cn2C1CCCC1 shows residual activity below 80%
Response: Condition not met

Request: Does this compound meet the criterion residual activity < 80%? CC(C)c1nn(-c2c(Cl)cccc2Cl)c2nc(Cc3ccc(OCCO)cc3)[nH]c(=O)c12
Response: Condition not met

Request: A record lists O=S(=O)(NCCNC/C=C/c1ccc(Br)cc1)c1cccc2cnccc12 . Is its residual activity below 80%?
Response: Condition met

Request: Does the reported residual activity of Nc1ncnc2c1cnn2-c1ccccc1 stay below 80%?
Response: Condition not met

Request: Is residual activity strictly under 80% for the entry O=C1NC(=O)C(c2cn(CCCO)c3ncccc23)=C1c1cnccn1 ?
Response: Condition not met

###

system: Tyrosine-protein kinase TXK (Homo sapiens)
condition.info: at 10 µM
# key: entry, value: residual activity
Output spec: scalar in %, unitless text.

- structure.smiles: "COc1cc2ncnc(Nc3cccc(Cl)c3)c2cc1OC"
  residual activity (%): 49

Request: Need residual activity, item N#Cc1c(NC(=O)c2cccc3ccccc23)sc2c1CCCC2
Response: 80

Request: For CCOC(=O)c1c(C)[nH]c(/C=C2\C(=O)Nc3ccccc32)c1C , what is its reported residual activity?
Response: 91
